Data provenance is paper PMC12291119.

target-desc: PGT122
protocol-summary: Bead-based radiometric binding assay of ribosomally synthesized free peptides
condition-description: free 3H-histidine-labelled peptide, no click glycosylation; 0, 100, 200, 400 nM antibody, 1 h room temperature, Protein G beads, LSC; Michaelis-Menten fit; preliminary
Ends that are not written are not given here.
Attribute: pKd
Scale: pKd equals -log10([C]), with [C] in mol/L.

residue-codes	quantity-kind	measured-number
AKTRTPMNLSGKSNIRYFFTIDNSTMFEDLFMRFPRSKEYHIELEEFKDLIR [2U7]	pKd	5.85
AQYIDWEIDINQVPNQMNLSKPTWKSDITINKVKWSFYININQASNENTDNI [2U6, ribosomally synthesized PGT122 selection clone]	pKd	6.78
ALNLYQIVEFTIDESNDIVQLQIGDIRTADCMSLNKECYNIIFFSWDNHGKN (also: sidechain bridge or staple (positions not given here)) [2B4c, ribosomally synthesized PGT122 selection clone, cyclized]	pKd	6.80

IN: # input sequence: ANPRIIFFELSIRNNSLKLLRWHDTQGIFHDSMTELSQHAELPRFKFHSNAA [GU1, ribosomally synthesized gl-PGT121 selection clone] ; wanted: its pKd
OUT: 6.81

###

Each entry below carries its reported Kd.
target-desc: PGT122
protocol-summary: Bead-based radiometric binding assay of ribosomally synthesized free peptides
condition-description: free 3H-histidine-labelled peptide, no click glycosylation; 0, 100, 200, 400 nM antibody, 1 h room temperature, Protein G beads, LSC; Michaelis-Menten fit; preliminary
Ends that are not written are not given here.
Unit nM implied. Number only.

residue-codes	target-desc	unit-of-measure	Kd
AYPVYLRLPIGDIRIASCMFGDEPNTWTRDELNDYFYTESYNPQPITITFKC (also: sidechain bridge or staple (positions not given here)) [2B2c, ribosomally synthesized PGT122 selection clone, cyclized]	PGT122	nM	1650

In the following, a different sequence is considered.
IN: Need Kd of AYVISFSIDQPDLDRPNIIRISIGDIRSAKCMKLDTINFAYRDDSSEVCYEK (also: sidechain bridge or staple (positions not given here)) [2B7c, ribosomally synthesized PGT122 selection clone, cyclized] , thanks.
OUT: 29.8

###

target-desc: PGT122
protocol-summary: Bead-based radiometric binding assay of clones prepared as cDNA/mRNA-glycopeptide fusions
condition-description: cDNA/mRNA-glycopeptide fusion, click-glycosylated with Man9(GlcNAc)2-azide; 2K CPM per sample; Protein G beads, LSC; preliminary
Ends that are not written are not given here.
quantity-kind: Kd
In your response, the unit should come after the numeric value.

# annotated cases, reported Kd shown
residue-codes	target-desc	Kd
ANNFICIRNIGDIRSARCMNVSAGRYAPYREFYFDITYDDFNKNVNIVITPV (also: sidechain bridge or staple (positions not given here)) [2B8c, ribosomally synthesized PGT122 selection clone, cyclized]	PGT122	108 nM
AKTRTPMNLSGKSNIRYFFTIDNSTMFEDLFMRFPRSKEYHIELEEFKDLIR [2U7]	PGT122	139 nM
ALNLYQIVEFTIDESNDIVQLQIGDIRTADCMSLNKECYNIIFFSWDNHGKN (also: sidechain bridge or staple (positions not given here)) [2B4c, ribosomally synthesized PGT122 selection clone, cyclized]	PGT122	155 nM
AYSIHFVCDINETPTNTSKAIFSIKCDITTPESTTRQLMITKHYHFPPTGTR (also: sidechain bridge or staple (positions not given here)) [2U8c, ribosomally synthesized PGT122 selection clone, cyclized]	PGT122	48.4 nM
ANPSFSVQFIVDLIGPNVMRITLSNKPFATICPITEGESHISKRFNFQLTIS [2U3c, ribosomally synthesized PGT122 selection clone; cyclized as a fusion but not as a free peptide]	PGT122	449 nM
AKTKTYLIRFHLDILPNDNLRSQKIRLIFGDKATVKGMITFLNDSELEWNFE [2U1, ribosomally synthesized PGT122 selection clone, tested with and without click glycosylation]	PGT122	29.8 nM

IN: // lookup Kd for ATLNIFSNFSIEPDSFYEIVLPIGDIRIAPCMSSFNRNGSTNNCYHFEINLF (also: sidechain bridge or staple (positions not given here)) [2B5c, ribosomally synthesized PGT122 selection clone, cyclized]
OUT: 85.9 nM

IN: What does the record list as Kd for AYVISFSIDQPDLDRPNIIRISIGDIRSAKCMKLDTINFAYRDDSSEVCYEK (also: sidechain bridge or staple (positions not given here)) [2B7c, ribosomally synthesized PGT122 selection clone, cyclized] ?
OUT: 143 nM

IN: I am curious: what Kd value has been reported for AQYIDWEIDINQVPNQMNLSKPTWKSDITINKVKWSFYININQASNENTDNI [2U6, ribosomally synthesized PGT122 selection clone] ?
OUT: 173 nM

IN: Requested field: Kd. Item: AYPVYLRLPIGDIRIASCMFGDEPNTWTRDELNDYFYTESYNPQPITITFKC (also: sidechain bridge or staple (positions not given here)) [2B2c, ribosomally synthesized PGT122 selection clone, cyclized]
OUT: 116 nM

IN: # lookup: Kd of AFIAYYFDLSQPNLHSPNFTLKIGDIREAQCMLTCDSAKPNPRVVPILALLI (also: sidechain bridge or staple (positions not given here)) [2B3c, ribosomally synthesized PGT122 selection clone, cyclized]
OUT: 140 nM

###

target-desc: PGT122
protocol-summary: Bead-based radiometric binding assay of clones prepared as cDNA/mRNA-glycopeptide fusions
condition-description: cDNA/mRNA-peptide fusion, no click glycosylation; 2K CPM per sample; Protein G beads, LSC; preliminary
Ends that are not written are not given here.
quantity-kind: pKd
The meaning of pKd here: minus log10 of the concentration in molar units.

Field: example entries. Status: answers known.
residue-codes	target-desc	measured-number
AYPVYLRLPIGDIRIASCMFGDEPNTWTRDELNDYFYTESYNPQPITITFKC (also: sidechain bridge or staple (positions not given here)) [2B2c, ribosomally synthesized PGT122 selection clone, cyclized]	PGT122	7.05
AQYIDWEIDINQVPNQMNLSKPTWKSDITINKVKWSFYININQASNENTDNI [2U6, ribosomally synthesized PGT122 selection clone]	PGT122	7.01

IN: // map AYVISFSIDQPDLDRPNIIRISIGDIRSAKCMKLDTINFAYRDDSSEVCYEK (also: sidechain bridge or staple (positions not given here)) [2B7c, ribosomally synthesized PGT122 selection clone, cyclized] to recorded pKd (system: PGT122)
OUT: 7.18

IN: Notebook entry, PGT122 assay: pKd of AKTKTYLIRFHLDILPNDNLRSQKIRLIFGDKATVKGMITFLNDSELEWNFE [2U1, ribosomally synthesized PGT122 selection clone, tested with and without click glycosylation] = ?
OUT: 7.08

###

target-desc: PGT122
protocol-summary: Bead-based radiometric binding assay of clones prepared as cDNA/mRNA-glycopeptide fusions
condition-description: cDNA/mRNA-peptide fusion, no click glycosylation; 2K CPM per sample; Protein G beads, LSC; preliminary
Ends that are not written are not given here.
Kd: recorded values

residue-codes	Kd
ANNFICIRNIGDIRSARCMNVSAGRYAPYREFYFDITYDDFNKNVNIVITPV (also: sidechain bridge or staple (positions not given here)) [2B8c, ribosomally synthesized PGT122 selection clone, cyclized]	176 nM
ALNLYQIVEFTIDESNDIVQLQIGDIRTADCMSLNKECYNIIFFSWDNHGKN (also: sidechain bridge or staple (positions not given here)) [2B4c, ribosomally synthesized PGT122 selection clone, cyclized]	44.4 nM
AFIAYYFDLSQPNLHSPNFTLKIGDIREAQCMLTCDSAKPNPRVVPILALLI (also: sidechain bridge or staple (positions not given here)) [2B3c, ribosomally synthesized PGT122 selection clone, cyclized]	99.7 nM

IN: I'd like to know its Kd. The sequence in question is AYSIHFVCDINETPTNTSKAIFSIKCDITTPESTTRQLMITKHYHFPPTGTR (also: sidechain bridge or staple (positions not given here)) [2U8c, ribosomally synthesized PGT122 selection clone, cyclized]
OUT: 173 nM

IN: Name the recorded Kd for AKTRTPMNLSGKSNIRYFFTIDNSTMFEDLFMRFPRSKEYHIELEEFKDLIR [2U7] .
OUT: 300 nM

IN: Can you share its Kd? I mean this sequence: ANPSFSVQFIVDLIGPNVMRITLSNKPFATICPITEGESHISKRFNFQLTIS [2U3c, ribosomally synthesized PGT122 selection clone; cyclized as a fusion but not as a free peptide]
OUT: 281 nM

IN: // query Kd value for entry ATLNIFSNFSIEPDSFYEIVLPIGDIRIAPCMSSFNRNGSTNNCYHFEINLF (also: sidechain bridge or staple (positions not given here)) [2B5c, ribosomally synthesized PGT122 selection clone, cyclized]
OUT: 314 nM

###

target-desc: PGT122
protocol-summary: Bead-based radiometric binding assay of ribosomally synthesized free peptides
condition-description: free 3H-histidine-labelled peptide, no click glycosylation; 0, 100, 200, 400 nM antibody, 1 h room temperature, Protein G beads, LSC; Michaelis-Menten fit; preliminary
Ends that are not written are not given here.
quantity-kind: Kd (nM)
Respond numerically; units are nM and should not be typed.

Guide cases for Kd, answers given:
residue-codes	quantity-kind	measured-number
AHSLFNFQVRLKQLPLDANGAVIGDIRIAECMNHTYTPLTFYIYSNHPTDIQ [GB1, ribosomally synthesized gl-PGT121 selection clone]	Kd	181
ATLNIFSNFSIEPDSFYEIVLPIGDIRIAPCMSSFNRNGSTNNCYHFEINLF (also: sidechain bridge or staple (positions not given here)) [2B5c, ribosomally synthesized PGT122 selection clone, cyclized]	Kd	212

Let us examine a further case.
IN: API: value(readout=Kd, system=PGT122) for record AFIAYYFDLSQPNLHSPNFTLKIGDIREAQCMLTCDSAKPNPRVVPILALLI (also: sidechain bridge or staple (positions not given here)) [2B3c, ribosomally synthesized PGT122 selection clone, cyclized]
OUT: 4490
